# Assay System: MARK2 (human) (UniProt Q7KZI7)
# Sequence (Q7KZI7 whole entry, looked up): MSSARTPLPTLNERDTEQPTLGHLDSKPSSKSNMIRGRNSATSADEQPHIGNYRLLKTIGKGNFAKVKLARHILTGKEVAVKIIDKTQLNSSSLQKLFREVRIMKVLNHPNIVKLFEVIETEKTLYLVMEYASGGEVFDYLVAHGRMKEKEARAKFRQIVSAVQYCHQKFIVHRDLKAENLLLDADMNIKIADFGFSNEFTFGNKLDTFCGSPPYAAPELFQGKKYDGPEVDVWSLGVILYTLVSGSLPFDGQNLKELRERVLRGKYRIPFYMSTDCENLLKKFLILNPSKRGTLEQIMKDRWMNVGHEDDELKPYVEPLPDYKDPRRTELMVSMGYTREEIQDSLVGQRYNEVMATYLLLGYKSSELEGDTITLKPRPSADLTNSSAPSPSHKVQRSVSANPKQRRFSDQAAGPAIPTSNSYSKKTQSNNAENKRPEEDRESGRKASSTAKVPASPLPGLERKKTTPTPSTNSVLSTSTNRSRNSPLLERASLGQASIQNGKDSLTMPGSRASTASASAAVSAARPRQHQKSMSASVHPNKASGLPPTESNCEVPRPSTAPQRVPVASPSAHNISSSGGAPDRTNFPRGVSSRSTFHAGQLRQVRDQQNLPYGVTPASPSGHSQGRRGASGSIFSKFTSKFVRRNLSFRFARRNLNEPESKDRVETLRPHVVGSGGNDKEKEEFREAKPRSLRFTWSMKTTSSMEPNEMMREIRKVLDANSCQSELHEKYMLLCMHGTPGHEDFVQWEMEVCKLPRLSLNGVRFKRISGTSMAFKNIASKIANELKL
# Assay Explanation: radiometric filter-binding kinase assay
# Test Context: compound 1.0 µM
Response key: yes means residual activity >= 60%; no means residual activity < 60%.

c1ccc2c(-c3cnn4cc(-c5ccc(N6CCNCC6)cc5)cnc34)ccnc2c1: yes

State whether the measured residual activity reaches 60%, counting equality as reaching it, for CCNc1nc(Nc2cc(F)c(C(=O)N3CCOCC3)cc2OC)ncc1C(F)(F)F
yes

State whether the measured residual activity reaches 60%, counting equality as reaching it, for N#Cc1c(C2CCNCC2)cc(-c2c(O)cccc2OCC2CC2)nc1N
yes

State whether the measured residual activity reaches 60%, counting equality as reaching it, for CNC(=O)C1[C@H]2O[C@@](C)([C@@H]1N)n1c3ccccc3c3c4c(c5c6ccccc6n2c5c31)C(=O)NC4 (stereo not given in full)
no

State whether the measured residual activity reaches 60%, counting equality as reaching it, for Nc1cccc2c1CN(C1CCC(=O)NC1=O)C2=O (stereo not given)
yes

----------
# System: ROCK2 (rat)
# Assay Explanation: radiometric filter-binding kinase assay
# Test Context: compound 1.0 µM; accession and sequence are those of the human protein
// assign MET if residual activity falls strictly below 90%, else NOT MET (ties count as NOT MET)

Look over these answered cases.
CC1=C(CO)C(=O)O[C@@H]([C@@H](C)[C@H]2CC[C@H]3[C@@H]4C[C@H]5O[C@]56[C@@H](O)C=CC(=O)[C@]6(C)C4CC[C@]23C)C1 (some centres undefined): NOT MET
c1ccc2c(-c3cnn4cc(-c5ccc(N6CCNCC6)cc5)cnc34)ccnc2c1: MET
C[C@H]1CCCC(=O)CCC/C=C/c2cc(O)cc(O)c2C(=O)O1: MET
Cc1ccc(-c2ccc3c(ccc4sc5c(c43)NC[C@@H](C)NC5=O)n2)cn1: NOT MET
COc1cc(C(=O)N2CCOCC2)c(F)cc1Nc1ncc(C(F)(F)F)c(NC2CC2)n1: NOT MET
Cn1nc(Nc2ccc(F)cc2)c2c(N)ncnc21: NOT MET
NC(=O)Nc1ccc2c(c1)/C(=C/c1cc(-c3cccnc3)c[nH]1)C(=O)N2: MET

Say whether its residual activity is strictly beneath 90%. Entry: O=C1Nc2nc(-c3c(O)cccc3OCC3CC3)cc(C3CCCNC3)c2CO1 (centres undefined)
MET

----------
Could you please report measured residual activity for the items listed next?
# Assay System: STK24 (human) (UniProt Q9Y6E0)
# Sequence (Q9Y6E0 whole entry, looked up): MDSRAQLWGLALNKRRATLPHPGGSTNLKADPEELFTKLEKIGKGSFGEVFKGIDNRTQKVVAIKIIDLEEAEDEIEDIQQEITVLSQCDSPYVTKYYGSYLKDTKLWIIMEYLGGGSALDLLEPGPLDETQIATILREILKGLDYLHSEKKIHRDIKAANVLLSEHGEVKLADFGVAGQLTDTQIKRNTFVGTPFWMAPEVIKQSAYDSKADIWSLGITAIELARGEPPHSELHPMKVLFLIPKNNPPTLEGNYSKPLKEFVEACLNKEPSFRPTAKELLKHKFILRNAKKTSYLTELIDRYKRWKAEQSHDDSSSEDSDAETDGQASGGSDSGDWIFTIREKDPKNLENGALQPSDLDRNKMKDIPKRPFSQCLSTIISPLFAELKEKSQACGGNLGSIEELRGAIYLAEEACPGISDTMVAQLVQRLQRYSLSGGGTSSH
# Assay Explanation: radiometric filter-binding kinase assay
# Test Context: compound 10.0 µM
Numbers only, in %.

// solved cases for residual activity follow
CCNc1nc(Nc2cc(F)c(C(=O)N3CCOCC3)cc2OC)ncc1C(F)(F)F: 81
COc1cc(C(=O)N2CCOCC2)c(F)cc1Nc1ncc(C(F)(F)F)c(NC2CC2)n1: 85
Nc1cccc2c1CN(C1CCC(=O)NC1=O)C2=O (configuration not stated): 84

Report residual activity for every entry below.
1. CNc1nc(-c2ccc3c(N)n[nH]c3c2)cc(N2C[C@@H](C(=O)NC3CCCCC3)CC[C@H]2C)n1
2. CC1=C(CO)C(=O)O[C@@H]([C@@H](C)[C@H]2CC[C@H]3[C@@H]4C[C@H]5O[C@]56[C@@H](O)C=CC(=O)[C@]6(C)C4CC[C@]23C)C1 (some centres not stated)
3. CCn1c(-c2nonc2N)nc2cncc(CNC3CCNCC3)c21

110
133
73

residual activity for NCC(=O)Nc1ccc(-n2nc(C(F)(F)F)cc2-c2ccc3c(ccc4ccccc43)c2)cc1 ?
70

----------
# Assay System: DYRK1A (human) (UniProt Q13627)
# Assay Explanation: radiometric filter-binding kinase assay
# Test Context: compound 10.0 µM
Measure Name: residual activity (%)
One number for each entry, in %.

// solved cases for residual activity follow
C=CC(=O)N1CCC[C@@H](n2nc(-c3ccc(Oc4ccccc4)cc3)c3c(N)ncnc32)C1: 87
Nc1cccc2c1CN(C1CCC(=O)NC1=O)C2=O (configuration not stated): 99
NS(=O)(=O)OC[C@@H]1C[C@@H](n2ccc3c(N[C@H]4CCc5ccccc54)ncnc32)C[C@@H]1O: 103
CC1=C(CO)C(=O)O[C@@H]([C@@H](C)[C@H]2CC[C@H]3[C@@H]4C[C@H]5O[C@]56[C@@H](O)C=CC(=O)[C@]6(C)C4CC[C@]23C)C1 (some centres not stated): 100
Cn1nc(Nc2ccc(F)cc2)c2c(N)ncnc21: 101
Cc1cccc(Nc2nn(C)c3ncnc(N)c23)c1: 101
C[C@H]1CCCC(=O)CCC/C=C/c2cc(O)cc(O)c2C(=O)O1: 32
CCOC(=O)c1ccc(N2NC(=O)/C(=C/c3ccc([N+](=O)[O-])o3)C2=O)cc1: 70

Report residual activity for every entry below.
1. Cc1ccc2c(c1)C(=O)[C@@]1(O)CCN(c3ccccc3)C1=N2
2. CC(C)(C#N)c1ccc(N2C(=O)OCc3cnc4ccc(-c5cnc6ccccc6c5)cc4c32)cc1
3. O=C(NOC[C@H](O)CO)c1ccc(F)c(F)c1Nc1ccc(I)cc1Cl
4. CCCCCc1ccc(/C=C/[C@H](O)[C@@H](CO)NC)cc1
5. NC1(c2ccc(-c3nc4ccn5c(=O)[nH]nc5c4cc3-c3ccccc3)cc2)CCC1
6. O=C(Nc1ccccc1-c1cn2c(CN3CCNCC3)csc2n1)c1cnc2ccccc2n1
7. O=C(O)c1cc(N=Nc2ccc(S(=O)(=O)Nc3ccccn3)cc2)ccc1O

1: 97; 2: 83; 3: 104; 4: 84; 5: 57; 6: 58; 7: 85

----------
# Assay System: PIM3 (human)
# Assay Explanation: radiometric filter-binding kinase assay
# Test Context: compound 10.0 µM
Grouping rule (residual activity): low group = under 40%, middle group = from 40% up to 80%, high group = 80% and over

CCNc1nc(Nc2cc(F)c(C(=O)N3CCOCC3)cc2OC)ncc1C(F)(F)F: middle group
CC(C)C[C@H](NC(=O)CNC(=O)c1cc(Cl)ccc1Cl)B1OC(=O)CC(CC(=O)O)(C(=O)O)O1 (stereo partly specified): high group
O=C(N[C@@H](COc1ccc2[nH]c(=O)[nH]c2c1)c1ccccc1)c1cccn(Cc2ccc(F)c(F)c2)c1=O: high group
COc1cc2ncn(-c3cc(OCc4ccccc4S(C)(=O)=O)c(C#N)s3)c2cc1OC: middle group
N#Cc1c(O)c2c(-c3ccc(-c4ccccc4O)cc3)csc2[nH]c1=O: low group
CCn1c(-c2nonc2N)nc2cncc(CNC3CCNCC3)c21: low group
CCc1cncnc1N1CCN(Cc2nc3cc(C(F)(F)F)ccc3[nH]2)CC1: high group
O=C(NOCC(O)CO)c1ccc(F)c(F)c1Nc1ccc(I)cc1Cl (stereo unspecified): middle group

Lab log: NCC(=O)Nc1ccc(-n2nc(C(F)(F)F)cc2-c2ccc3c(ccc4ccccc43)c2)cc1 — assign residual activity category
middle group

Lab log: NC1(c2ccc(-c3nc4ccn5c(=O)[nH]nc5c4cc3-c3ccccc3)cc2)CCC1 — assign residual activity category
middle group

Lab log: NC(=O)c1c(NC(=O)C2CC2)sc2c1CCCC2 — assign residual activity category
middle group

Lab log: Nc1cccc2c1CN(C1CCC(=O)NC1=O)C2=O (stereo unspecified) — assign residual activity category
high group

----------
# Assay System: BRSK1 (human) (UniProt Q8TDC3)
# Sequence (Q8TDC3 whole entry, looked up): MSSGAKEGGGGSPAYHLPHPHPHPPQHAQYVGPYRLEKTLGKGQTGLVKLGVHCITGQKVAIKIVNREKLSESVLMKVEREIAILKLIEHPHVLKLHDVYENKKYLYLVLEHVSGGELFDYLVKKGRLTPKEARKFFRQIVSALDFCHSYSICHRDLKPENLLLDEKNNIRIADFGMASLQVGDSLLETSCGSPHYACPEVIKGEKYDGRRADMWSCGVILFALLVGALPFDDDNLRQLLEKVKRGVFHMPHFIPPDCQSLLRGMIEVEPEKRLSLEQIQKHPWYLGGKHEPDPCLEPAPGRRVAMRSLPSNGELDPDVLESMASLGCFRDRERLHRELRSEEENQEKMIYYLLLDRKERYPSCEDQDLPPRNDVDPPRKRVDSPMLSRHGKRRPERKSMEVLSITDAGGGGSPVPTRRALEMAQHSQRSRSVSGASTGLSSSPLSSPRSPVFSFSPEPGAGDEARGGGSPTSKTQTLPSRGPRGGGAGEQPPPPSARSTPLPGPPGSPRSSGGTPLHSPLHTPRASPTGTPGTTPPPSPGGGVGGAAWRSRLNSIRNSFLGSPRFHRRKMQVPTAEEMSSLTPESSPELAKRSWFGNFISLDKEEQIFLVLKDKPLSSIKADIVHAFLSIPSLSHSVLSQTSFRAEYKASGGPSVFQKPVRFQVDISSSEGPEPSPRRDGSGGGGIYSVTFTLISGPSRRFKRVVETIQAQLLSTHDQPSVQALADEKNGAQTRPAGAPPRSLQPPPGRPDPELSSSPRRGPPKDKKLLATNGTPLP
# Assay Explanation: radiometric filter-binding kinase assay
# Test Context: compound 1.0 µM
Measure Name: residual activity (%)
Give bare numbers, in %.

Report residual activity for every entry below.
1. O=C(NOCC(O)CO)c1ccc(F)c(F)c1Nc1ccc(I)cc1Cl (stereo not given)
2. O=C(N[C@@H](COc1ccc2[nH]c(=O)[nH]c2c1)c1ccccc1)c1cccn(Cc2ccc(F)c(F)c2)c1=O
3. COc1cc2ncn(-c3cc(OCc4ccccc4S(C)(=O)=O)c(C#N)s3)c2cc1OC

1. 98
2. 102
3. 40

Report residual activity for every entry below.
1. Cc1nc(-c2ccc(OCC(C)C)c(C#N)c2)sc1C(=O)O
2. Cc1ccc(Sc2cnc(Nc3cccc(Br)n3)s2)cc1C(=O)N1CCN(C(=O)CN)CC1
3. C=C1C(=O)OC2C1CC/C(C)=C/CCC1(C)OC21 (stereo not given)

1. 94
2. 81
3. 109

Report residual activity for every entry below.
1. Cc1ccc(=O)n(-c2ccccc2)c1
2. CN(C)C/C=C/C(=O)Nc1cccc(C(=O)Nc2ccc(Nc3nccc(-c4cccnc4)n3)cc2)c1
3. NC(=O)c1c(NC(=O)C2CC2)sc2c1CCCC2
4. NC(=O)c1cc(-c2ccnc(NC3CCCCC3)c2)nc(N2CCNCC2)c1

95
86
97
73

----------
Could you please report measured residual activity for the items listed next?
# Assay System: EPHB4 (human)
# Assay Explanation: radiometric filter-binding kinase assay
# Test Context: compound 1.0 µM
Give bare numbers, in %.

// solved cases for residual activity follow
Cc1ccc(Sc2cnc(Nc3cccc(Br)n3)s2)cc1C(=O)N1CCN(C(=O)CN)CC1: 13
CCn1c(-c2nonc2N)nc2cncc(CNC3CCNCC3)c21: 105
CCCCCc1ccc(/C=C/[C@H](O)[C@@H](CO)NC)cc1: 101
Oc1ccc2ccccc2c1SSc1c(O)ccc2ccccc12: 109
COc1cc(C(=O)N2CCOCC2)c(F)cc1Nc1ncc(C(F)(F)F)c(NC2CC2)n1: 94
O=C(NOC[C@H](O)CO)c1ccc(F)c(F)c1Nc1ccc(I)cc1Cl: 90
NC(=O)c1c(NC(=O)C2CC2)sc2c1CCCC2: 101
COc1cc(O)c2c(c1)/C=C/C[C@H](O)[C@H](O)C(=O)/C=C\C[C@H](C)OC2=O: 90
O=C(NCCCNc1nc(Nc2cccc(CN3CCOCC3)c2)ncc1C1CC1)C1CCC1: 117

Please look at the following molecule next.
residual activity for O=c1c(O)c(-c2ccc(O)c(O)c2)oc2cc(O)c(O)c(O)c12 ?
90

Reference source: the kinase profiling compilation of Christmann-Franck et al. (2016)
